Let's look at some compounds and their measured growth.
- Test system: ACHN renal
- protocol: NCI-60 one-dose screen, 48 h (100 = growth as untreated, 0 = no growth, -100 = all killed)
- cond: 10 µM unless noted
This is part of a sample that, as a whole, favours compounds with a hit. Of some 83,000 tested, about 20% had one in any assay.
property name: growth (%)

>>> readout_number("NC1=NN(c2ccccc2)C(=O)/C1=C/c1ccc(Cl)cc1")
93.9
>>> readout_number("NC(=O)[C@@H]1CC2CCC1C2 (stereo partly specified)")
102
>>> readout_number("CCc1ccccc1NC(=O)c1sc2nc3c(cc2c1N)CCCC3")
48.2
>>> readout_number("COc1ccc(-c2cc(/C=C/C(=O)c3ccc(N)cc3)[nH]n2)cc1")
26.9
>>> readout_number("N=C(N)c1ccc(S(N)(=O)=O)cc1")
108
>>> readout_number("O=c1c(CNc2ccc(S(=O)(=O)Nc3ncccn3)cc2)coc2ccccc12")
89.9

---

- Test system: UO-31 renal
- protocol: NCI-60 one-dose screen, 48 h
- cond: 10 µM unless noted
About 83,000 compounds went through this panel and 20% of them were active in at least one assay; those are over-represented in the sample as a whole. Active and inactive are the calls of the source. The calls were made as follows: active = growth percent below 10; inactive = the rest.
Labels: Yes for active, No for inactive

>>> category_label("O=[N+]([O-])c1ccc(/C=N\\Nc2ccccc2)cc1")
"No"
>>> category_label("Cc1cc(N2CCOCC2)nc(N(CCCNc2ccnc3cc(Cl)ccc23)Cc2ccco2)n1")
"No"
>>> category_label("Clc1cc(Cl)cc(Nc2ccc3c(OCCCN4CCOCC4)cccc3n2)c1")
"No"
>>> category_label("C=COCCCCCCCCCCCCCCCCCC")
"No"
>>> category_label("COc1ccc(-c2nc(SCC(=O)Nc3ccc(C(C)=O)cc3)[nH]c(=O)c2C#N)cc1")
"No"
>>> category_label("CC(C)(C)CC(C)(C)c1ccc(OCCOCC[N+](C)(C)CC(=O)[O-])cc1")
"No"
>>> category_label("COc1cnc2c(c1)C(=O)c1c-2n(CCCN2CCN(CCO)CC2)c(=O)c2cc([N+](=O)[O-])ccc12")
"No"
>>> category_label("N#CC1=C(N)Oc2ccc3ccccc3c2C1c1ccccc1 (centres undefined)")
"No"
>>> category_label("Cc1cccc2c1NC(=O)[C@@]21[C@H](C(=O)c2ccccc2)[C@]2(C(=O)Nc3ccccc32)[C@H]2CCCN21")
"No"
>>> category_label("C=C(C)[C@@H]1CC[C@]2(C(=O)NNC(=O)c3cccnc3)CC[C@]3(C)[C@H](CC[C@@H]4[C@@]5(C)CCCNC(C)(C)[C@@H]5CC[C@]43C)[C@@H]12")
"No"
>>> category_label("COc1ccc(C(=O)c2ccc(C)cc2)c(OC)c1OC")
"No"
>>> category_label("CCCCCCCCNc1cccc2c1C(=O)c1ccccc1C2=O")
"No"
>>> category_label("C=C(C)[C@@H]1CC[C@]2(C=NCCCNCCCCNCCCN)CC[C@]3(C)[C@H](CC[C@@H]4[C@@]5(C)CCCNC(C)(C)[C@@H]5CC[C@]43C)[C@@H]12")
"No"
>>> category_label("CCCCC[C@H]1C/C=C2/C(=O)C=C[C@@H]2C/C=C\\CCCC(=O)O[C@@H](CCCCC)C/C=C2/C(=O)C=C[C@@H]2C/C=C\\CCCC(=O)O1")
"Yes"
>>> category_label("Oc1cc(/C=C/c2nc(N3CCOCC3)c3cc(Cl)c(Cl)cc3n2)cc(O)c1O")
"No"
>>> category_label("CCN(CC)CCCCCCNc1ccnc2cc(Cl)ccc12")
"No"
>>> category_label("Cc1ccnc2c(OCc3ccccc3)cccc12")
"No"
>>> category_label("Cn1c2c(c3ccc(Cl)cc31)-n1cccc1C2=O")
"No"
>>> category_label("COc1ccc(-c2nc3c(c(C)nn3-c3ccc(F)cc3)c(=O)[nH]2)cc1")
"No"
